# testTarget: Rat NHE3 (Rattus norvegicus, UniProt P26433)
# Construct: expressed in transfected cells
# Sequence (P26433 29-831): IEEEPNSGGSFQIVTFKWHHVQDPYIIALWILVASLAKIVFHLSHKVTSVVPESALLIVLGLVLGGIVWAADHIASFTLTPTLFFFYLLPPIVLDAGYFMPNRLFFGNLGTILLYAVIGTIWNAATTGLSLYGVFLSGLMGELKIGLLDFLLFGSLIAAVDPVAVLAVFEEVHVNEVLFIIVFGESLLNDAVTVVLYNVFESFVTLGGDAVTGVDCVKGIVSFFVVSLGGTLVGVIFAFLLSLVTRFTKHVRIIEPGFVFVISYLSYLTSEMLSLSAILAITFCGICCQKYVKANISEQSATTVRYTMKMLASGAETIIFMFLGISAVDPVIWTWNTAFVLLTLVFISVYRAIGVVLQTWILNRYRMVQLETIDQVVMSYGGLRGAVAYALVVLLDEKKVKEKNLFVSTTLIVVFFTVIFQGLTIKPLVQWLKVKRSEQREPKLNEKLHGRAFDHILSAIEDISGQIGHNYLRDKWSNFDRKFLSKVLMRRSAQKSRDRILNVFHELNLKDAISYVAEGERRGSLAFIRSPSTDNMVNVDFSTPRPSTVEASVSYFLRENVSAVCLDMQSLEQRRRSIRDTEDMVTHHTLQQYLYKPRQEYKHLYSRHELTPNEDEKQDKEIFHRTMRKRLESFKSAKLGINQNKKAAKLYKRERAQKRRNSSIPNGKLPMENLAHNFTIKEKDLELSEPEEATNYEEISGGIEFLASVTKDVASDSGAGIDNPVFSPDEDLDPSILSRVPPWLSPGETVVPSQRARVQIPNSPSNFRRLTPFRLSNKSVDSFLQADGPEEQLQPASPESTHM
# experimentSummary: NHE activity measurement: pHi recovery after acid load in transfected LAP1 cells
# Type: cell-based
# assaySetup: pH recovery after acid load, 3 minutes
Counter-ions that a name gives are not always drawn.
Quick list: pIC50 per entry.
Here pIC50 is given on a logarithmic scale as minus log10 of the concentration in mol/L.

- molecule: "COc1cccc(CN[C@@H]2C[C@@H]3C[C@H]2[C@@H]2CCC[C@H]32)c1.Cl (racemic) [Example 5, hydrochloride]"
  pIC50: 6.09
- molecule: "COc1cccc(CN[C@@H]2CC3CC2[C@H]2CCC[C@@H]32)c1 (some centres unmarked) [Example 8, hydrochloride]"
  pIC50: 4.15
- molecule: "COc1cccc(CN[C@@H]2CC3CC2[C@@H]2CCC[C@H]32)c1 (some centres unmarked) [Example 7, hydrochloride]"
  pIC50: 4.51
- molecule: "Cl.Fc1cccc(CN[C@@H]2C[C@@H]3C[C@H]2[C@@H]2CCC[C@H]32)c1 [Example 10, hydrochloride]"
  pIC50: 6.05

We next turn to a different molecule, shown below.
Data request: What reported pIC50 corresponds to COc1cccc(CN[C@@H]2C[C@@H]3C[C@H]2[C@H]2CCC[C@@H]32)c1 (relative stereo) [Example 9, hydrochloride] on Rat NHE3 (Rattus norvegicus, UniProt P26433)?
Data returned: 5.30

Origin of values: patent US6825231B2
